Where do these numbers come from? They come from the supplement of paper PMC12667976.

Give AIRE transcriptional activation functional score for every item shown.
B1: library; numbered along this chain (parent)
chain: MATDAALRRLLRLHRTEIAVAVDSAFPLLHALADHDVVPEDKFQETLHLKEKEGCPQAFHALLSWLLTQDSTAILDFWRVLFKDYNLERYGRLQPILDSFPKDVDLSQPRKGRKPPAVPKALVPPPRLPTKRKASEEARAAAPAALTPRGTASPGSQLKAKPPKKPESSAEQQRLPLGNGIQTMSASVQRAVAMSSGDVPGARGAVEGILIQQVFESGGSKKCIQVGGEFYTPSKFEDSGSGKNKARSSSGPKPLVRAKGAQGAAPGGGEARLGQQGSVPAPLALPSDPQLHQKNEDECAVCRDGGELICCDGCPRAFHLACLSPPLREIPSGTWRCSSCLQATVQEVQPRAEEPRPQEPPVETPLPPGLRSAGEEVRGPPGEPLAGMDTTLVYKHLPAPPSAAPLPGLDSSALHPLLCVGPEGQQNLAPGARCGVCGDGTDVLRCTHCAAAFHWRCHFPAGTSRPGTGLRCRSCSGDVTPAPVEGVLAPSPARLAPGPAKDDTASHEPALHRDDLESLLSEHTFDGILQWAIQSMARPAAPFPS

Variants of: B1
Assay: AIRE transcriptional activation functional score (insulin promoter-GFP; nonsense median 0, synonymous median 1) (normalised score); higher = higher AIRE activity (more reporter activation)
Conditions: with insulin promoter-GFP reporter in HEK293

Given item L158E , the value recorded as its AIRE transcriptional activation functional score is 0.986

Given item S248E , the value recorded as its AIRE transcriptional activation functional score is 0.474

Given item K111N , the value recorded as its AIRE transcriptional activation functional score is 1.36

Given item A321M , the value recorded as its AIRE transcriptional activation functional score is 1.58

Given item D304P , the value recorded as its AIRE transcriptional activation functional score is 0.387

Given item G197Y , the value recorded as its AIRE transcriptional activation functional score is 0.74

Given item K165C , the value recorded as its AIRE transcriptional activation functional score is 0.37

Given item P401F , the value recorded as its AIRE transcriptional activation functional score is 0.595

Given item Q69W , the value recorded as its AIRE transcriptional activation functional score is -0.383

Given item P350H , the value recorded as its AIRE transcriptional activation functional score is 1.47

Given item T68P , the value recorded as its AIRE transcriptional activation functional score is 0.108

Given item V206L , the value recorded as its AIRE transcriptional activation functional score is 1.1

Given item P252M , the value recorded as its AIRE transcriptional activation functional score is 1.88

Given item S169E , the value recorded as its AIRE transcriptional activation functional score is 0.245

Given item I96N , the value recorded as its AIRE transcriptional activation functional score is 0.24
